Conditions: 323.15 K; 96.7 kPa; Liquid; Capillary tube (Ostwald / Ubbelohde) method
measuredParameter: viscosity (mPa·s)
Answers are plain numbers, in mPa·s.

// solved cases for viscosity follow
>>> print(df.to_string())
                                   molecule  measuredparameter  unitstring  value
0         C[S+](C)[O-] [dimethyl sulfoxide]          viscosity       mPa·s  1.304
1      CC(=O)N(C)C [N,N-dimethylethanamide]          viscosity       mPa·s  0.698
2              CN(C)C=O [dimethylformamide]          viscosity       mPa·s  0.619
3  CCCCCCn1cc[n+](C)c1.[Cl-] [1-hexyl-3-methylimidazolium chloride]          viscosity       mPa·s  928.1

Then this molecule:
Task: Item under review: c1ccncc1 . Reported viscosity?
Result: 0.658
